# Assay Protocol: Selectivity index, ratio of CC50 for cytotoxicity against human MT4 cells to EC50 for antiviral activity against HIV1 IIIB infected in human MT4 cells
# Assay type: toxicity, cell-based
# Experimental Context: read-out: Ratio CC50/EC50
Exercise: state measured selectivity ratio for each of the compounds provided.

[
  {
    "Structure": "COc1ccc(N(C)C(=O)[C@H](Cc2cc(F)cc(F)c2)NC(=O)CN2CCN(C(=O)c3ccc(NS(C)(=O)=O)cc3)CC2=O)cc1",
    "Recorded Result": "> 1.18"
  }
]

Below are some compounds; for each one, tell me its selectivity ratio.
1. COC(=O)CCSc1nnc([C@H](Cc2ccccc2)NC(=O)Cc2c(C)[nH]c3ccccc23)n1-c1ccc(OC)cc1
2. COc1ccc(N(C)C(=O)[C@H](Cc2ccccc2)NC(=O)CN2CCN(C(=O)Cc3c[nH]c4ccc(O)cc34)CC2=O)cc1

1. > 19
2. > 1.06

These data points were gathered from ChEMBL document CHEMBL5344428.
